# Test system: P. falciparum (NF54 or 3D7 strain)
# test.name: Assay for P. falciparum proliferation in infected human blood cells (SYBR Green)
# Type: cell-based, Plasmodium falciparum
# test.context: Plasmodium falciparum, Erythrocyte, 72 h, NF54 or 3D7 infected human erythrocytes, 72 hours; read-out: EC50 (nM), inhibitory efficacy in delaying P. falciparum proliferation in infected human blood cells
reported.metric: EC50 (nM)
Use nM as the unit, but write only the number.

Sample answers from the record:
molecule	reported.metric	recorded.result
CN(C)c1ccc(-c2cnc3cnc(CN(C)c4ccc(Cl)cc4)cn23)cc1 [Compound 37]	EC50	640
CN(C)c1ccc(-c2cnc3cnc(C(=O)N(C)c4ccc(F)cc4)cn23)cc1 [Compound 121]	EC50	259
CN(C(=O)c1cn2c(-c3ccc(C(F)(F)F)cc3)cnc2cn1)c1ccc(-n2cncn2)cc1 [Compound 313]	EC50	1320
CN(C(=O)c1cn2c(-c3ccc(-c4ccco4)cc3)cnc2cn1)c1ccc(C#N)cc1 [Compound 125]	EC50	369
CN(C(=O)c1cn2c(-c3ccc(N4CCCC4)cc3)cnc2cn1)c1ccc(C#N)cc1 [Compound 181]	EC50	723
CN(C(=O)c1cn2c(-c3ccc(C(F)(F)F)cc3)cnc2cn1)c1cccnc1 [Compound 326]	EC50	2090
CN(C(=O)c1cn2c(-c3ccc(Oc4ccccc4)cc3)cnc2cn1)c1ccc(C#N)cc1 [Compound 177]	EC50	6750
CN(C(=O)c1cn2c(-c3ccc4c(ccn4C)c3)cnc2cn1)c1ccc(Cl)cc1 [Compound 141]	EC50	433
CN(C(=O)c1cn2c(-c3cnn(Cc4ccccc4)c3)cnc2cn1)c1ccc(C#N)cc1 [Compound 178]	EC50	6510
CN(C(=O)c1cn2c(-c3ccc(Cl)nc3)cnc2cn1)c1ccc(C#N)cc1 [Compound 439]	EC50	2760

Measured EC50 of CN(C(=O)c1cn2c(-c3ccc(C(F)(F)F)cc3)cnc2cn1)c1ccc(Cl)cc1Cl [Compound 49] : 314

Measured EC50 of N#Cc1ccc(N(CCC2CCOCC2)C(=O)c2cn3c(-c4ccc(C(F)(F)F)cc4)cnc3cn2)cc1 [Compound 133] : 338

Measured EC50 of Cc1noc(-c2ccc(-c3cnc4cnc(C(=O)N(C)c5ccc(C#N)cc5)cn34)cc2)n1 [Compound 339] : 1260

Measured EC50 of CN(C(=O)c1cn2c(-c3ccc4c(ccn4C)c3)cnc2cn1)c1ccc(C#N)cc1 [Compound 123] : 387

====

# System: P. falciparum (NF54 or 3D7 strain)
# test.name: Assay for P. falciparum proliferation in infected human blood cells (SYBR Green)
# Assay type: cell-based, Plasmodium falciparum
# test.context: Plasmodium falciparum, Erythrocyte, 72 h, NF54 or 3D7 infected human erythrocytes, 72 hours; read-out: EC50 (nM), inhibitory efficacy in delaying P. falciparum proliferation in infected human blood cells
reported.metric: EC50 (nM)
Use nM as the unit, but write only the number.

Sample answers from the record:
compound	EC50 / nM
COc1ccc(-c2cnc3cnc(C(=O)N(C)c4ccc(Cl)nc4)cn23)cc1 [Compound 100]	297
CN(C(=O)c1cn2c(-c3ccc(C(F)(F)F)cc3)cnc2cn1)c1ccc(F)cc1 [Compound 101]	33
CCc1ccc(N(C)C(=O)c2cn3c(-c4ccc(C(F)(F)F)cc4)cnc3cn2)nc1 [Compound 39]	1080
COc1ncc(-c2cnc3cnc(C(=O)N(C)c4ccc(C#N)cc4)cn23)cn1 [Compound 333]	4130
CN(C)c1ccc(-c2cnc3cnc(C(=O)N(C)c4ccc(F)c(F)c4)cn23)cc1 [Compound 159]	368

Measured EC50 of CN(C(=O)c1cn2c(-c3ccc(C(N)=O)cc3)cnc2cn1)c1ccc(C#N)cc1 [Compound 104] : 57

Measured EC50 of Cc1ccc(N(C)Cc2cn3c(-c4ccc(C(F)(F)F)cc4)cnc3cn2)nc1 [Compound 287] : 972

Measured EC50 of COc1ccc(N(C)C(=O)c2cn3c(-c4ccc(C(F)(F)F)cc4)cnc3cn2)cn1 [Compound 88] : 1740

Measured EC50 of CC(C)N(C(=O)c1cn2c(-c3ccc(C(F)(F)F)cc3)cnc2cn1)c1ccc(C#N)cc1 [Compound 92] : 349

Measured EC50 of COC(=O)Nc1ccc(-c2cnc3cnc(C(=O)N(C)c4ccc(C#N)cc4)cn23)cc1 [Compound 482] : 37

Measured EC50 of CN(C(=O)c1cn2c(-c3cccc(C(F)(F)F)c3)cnc2cn1)c1ccc(C#N)cc1 [Compound 175] : 3280

Measured EC50 of CN(C(=O)c1cn2c(-c3ccc4[nH]ccc4c3)cnc2cn1)c1ccc(C#N)cc1 [Compound 428] : 276

====

# Tested on: P. falciparum (NF54 or 3D7 strain)
# test.name: Assay for P. falciparum proliferation in infected human blood cells (SYBR Green)
# Format: cell-based, Plasmodium falciparum
# test.context: Plasmodium falciparum, Erythrocyte, 72 h, NF54 or 3D7 infected human erythrocytes, 72 hours; read-out: EC50 (nM), inhibitory efficacy in delaying P. falciparum proliferation in infected human blood cells
The entries below come with measured log10 EC50 values attached.
Please interpret these as log10 of EC50 where EC50 is in nM.

Sample answers from the record:
CN(C(=O)c1cn2c(-c3ccc(Cl)cc3)cnc2cn1)c1ccc(Cl)cc1 2.08
COc1ccc(-c2cnc3cnc(C(=O)N(C)c4ccc(C#N)cc4)cn23)cc1C 3.40
CN(C(=O)c1cn2c(-c3ccc(C(F)(F)F)nc3)cnc2cn1)c1ccc(C#N)cc1 3.14

Measured log10 EC50 of CN(C(=O)c1cn2c(-c3ccc(C(F)(F)F)cc3Cl)cnc2cn1)c1ccc(C#N)cc1 : 3.08

Measured log10 EC50 of CC(C)c1nc(-c2cnc3cnc(C(=O)N(C)c4ccc(Cl)nc4)cn23)cs1 : 3.92

Measured log10 EC50 of Cc1ccc(N(C)Cc2cn3c(-c4ccc(C(F)F)cc4)cnc3cn2)nc1 : 2.42

Measured log10 EC50 of CN(C(=O)c1cn2c(-c3ccc(C(F)(F)F)cc3)cnc2cn1)c1nc2ccccc2s1 : 3.98

Measured log10 EC50 of COc1ccc(-c2cnc3cnc(C(=O)N(C)c4ccc(C#N)cc4)cn23)cn1 : 2.92

====

# System: P. falciparum (NF54 or 3D7 strain)
# test.name: Assay for P. falciparum proliferation in infected human blood cells (SYBR Green)
# Format: cell-based, Plasmodium falciparum
# test.context: Plasmodium falciparum, Erythrocyte, 72 h, NF54 or 3D7 infected human erythrocytes, 72 hours; read-out: EC50 (nM), inhibitory efficacy in delaying P. falciparum proliferation in infected human blood cells
reported.metric: EC50 (nM)
Use nM as the unit, but write only the number.

Sample answers from the record:
CC(C)[C@H](N)C(=O)Nc1ccc(-c2cnc3cnc(C(=O)N(C)c4ccc(C#N)cc4)cn23)cc1 234
CN(C(=O)c1cn2c(-c3ccc(C(F)(F)F)cc3F)cnc2cn1)c1ccc(Cl)nc1 468

Measured EC50 of CC(C)S(=O)(=O)c1ccc(-c2cnc3cnc(C(=O)N(C)c4ccc(C#N)cc4)cn23)cc1 : 3170

Measured EC50 of COc1ccc(-c2cnc3cnc(C(=O)N(C)c4ccc(F)c(F)c4)cn23)cc1 : 82

Measured EC50 of CCOc1ccnc(N(C)C(=O)c2cn3c(-c4ccc(C(F)(F)F)cc4)cnc3cn2)c1 : 2480

Measured EC50 of CN(Cc1cn2c(-c3ccc(-n4cccn4)cc3)cnc2cn1)c1ccc(Cl)cc1 : 218

Measured EC50 of Cc1n[nH]c2ccc(-c3cnc4cnc(C(=O)N(C)c5ccc(Cl)nc5)cn34)cc12 : 2210

Measured EC50 of Cc1ccc(N(C)Cc2cn3c(-c4ccc5c(cnn5C)c4)cnc3cn2)nc1 : 178

Measured EC50 of CN(C(=O)c1cn2c(-c3ccc(C(F)(F)F)cc3)cnc2cn1)c1ccc(Cl)cc1 : 36

Measured EC50 of CNC(=O)c1ccc(-c2cnc3cnc(C(=O)N(C)c4ccc(F)cc4)cn23)cc1 : 290

Measured EC50 of CN(C(=O)c1cn2c(-c3ccc(C(C)(F)F)cc3)cnc2cn1)c1ccc(Cl)nc1 : 100

Measured EC50 of CN(Cc1cn2c(-c3ccc(Cl)cc3)cnc2cn1)c1ccc(Cl)cc1 : 206

Measured EC50 of CCN(C(=O)c1cn2c(-c3ccc(C(F)(F)F)cc3)cnc2cn1)c1ccc(C#N)cc1 : 76

====

# Test system: P. falciparum (NF54 or 3D7 strain)
# test.name: Assay for P. falciparum proliferation in infected human blood cells (SYBR Green)
# Type: cell-based, Plasmodium falciparum
# test.context: Plasmodium falciparum, Erythrocyte, 72 h, NF54 or 3D7 infected human erythrocytes, 72 hours; read-out: EC50 (nM), inhibitory efficacy in delaying P. falciparum proliferation in infected human blood cells
The entries below come with measured EC50 values attached.

Sample answers from the record:
compound	EC50
CCn1nccc1NC(=O)c1cn2c(-c3ccc(C(F)(F)F)cc3)cnc2cn1 [Compound 368]	7040 nM
CN(C(=O)c1cn2c(-c3ccc(OC(F)F)cc3)cnc2cn1)c1ccc(S(C)(=O)=O)cc1 [Compound 209]	2700 nM

Measured EC50 of CN(C(=O)c1cn2c(-c3ccc(C(F)(F)F)cc3)cnc2cn1)c1ccc(C(F)(F)F)cn1 [Compound 337] : > 7160 nM

Measured EC50 of CN(C(=O)c1cn2c(-c3ccc(OCC(F)(F)F)cc3)cnc2cn1)c1ccc(C#N)cc1 [Compound 138] : 849 nM

Measured EC50 of CN(C(=O)c1cn2c(-c3ccc(C(F)(F)F)cc3)cnc2cn1)c1nccs1 [Compound 356] : 6680 nM
